Would you mind telling me the reported URIC ACID of each entry?
# Species on record: Rattus norvegicus
# test-details: DrugMatrix - Regimen: Daily Repeat
# Assay type: toxicity, organism-based, Sprague-Dawley
# Design: regimen Daily Repeat, gender Male, age 6-8 weeks
# experimental-conditions: in vivo, po, 0 mg/kg, 72 h, tissue Plasma, route oral GAVAGE, dose level Control, time 3 day, […]
Answers are plain numbers, in mg/dL.

Completed entries (count: 5):
> print(dat)
                                   compound  observed.property  experimental.result
1           Cc1ccc(C)c(OCCCC(C)(C)C(=O)O)c1          URIC ACID                 0.87
2  CCCCC(=O)N(Cc1ccc(-c2ccccc2-c2nnn[nH]2)cc1)[C@H](C(=O)O)C(C)C          URIC ACID                  0.8
3      ClC(Cl)(Cl)Cl [CARBON TETRACHLORIDE]          URIC ACID                 0.62
4  CS(=O)(=O)Nc1ccc([N+](=O)[O-])cc1Oc1ccccc1 [NIMESULIDE]          URIC ACID                 0.67
5  CC(C)c1c(C(=O)Nc2ccccc2)c(-c2ccccc2)c(-c2ccc(F)cc2)n1CC[C@@H](O)C[C@@H](O)CC(=O)O          URIC ACID                  0.5

Batch request: URIC ACID per item, same order as input.
1. CC(=O)Oc1ccccc1C(=O)O
2. c1ccoc1
3. CCc1ccc(CCOc2ccc(CC3SC(=O)NC3=O)cc2)nc1 (centres undefined)

Given back:
1. 0.8
2. 1.62
3. 0.77

Asked: Please report the measured URIC ACID for O=c1c(-c2ccc(O)cc2)coc2cc(O)cc(O)c12
Given back: 0.5

====

# Species on record: Rattus norvegicus
# test-details: DrugMatrix - Regimen: Daily Repeat
# Format: toxicity, organism-based, Sprague-Dawley
# Parameters: regimen Daily Repeat, gender Male, age 6-8 weeks
# experimental-conditions: in vivo, po, 0 mg/kg, 72 h, tissue Blood, route oral GAVAGE, dose level Control, time 3 day, vehicle .5 % CMC
Would you mind telling me the reported MEAN CORPUSCULAR HEMOGLOBIN CONCENTRATION of each entry?

Completed entries (count: 8):
compound	experimental-result
CCCCC1=NC2(CCCC2)C(=O)N1Cc1ccc(-c2ccccc2-c2nnn[nH]2)cc1	33.95 G/DL
CCCNC(=O)NS(=O)(=O)c1ccc(Cl)cc1 [CHLORPROPAMIDE]	39.17 G/DL
CN1CCN(C2=Nc3cc(Cl)ccc3Nc3ccccc32)CC1	39.17 G/DL
COc1cc(OC)c(C(=O)CCCN2CCCC2)c(OC)c1	38.82 G/DL
C[C@H]1[C@H](NC(=O)/C(=N\OC(C)(C)C(=O)O)c2csc(N)n2)C(=O)N1S(=O)(=O)O	36.85 G/DL
CN1C(=O)CN=C(c2ccccc2)c2cc([N+](=O)[O-])ccc21	30.47 G/DL
C[C@@H]1O[C@@H](O[C@H]2C[C@@H](O)[C@]3(CO)[C@H]4[C@H](O)C[C@]5(C)[C@@H](C6=CC(=O)OC6)CC[C@]5(O)[C@@H]4CC[C@]3(O)C2)[C@H](O)[C@H](O)[C@H]1O	37.97 G/DL
COc1ccccc1[N+](=O)[O-]	37.32 G/DL

// below: MEAN CORPUSCULAR HEMOGLOBIN CONCENTRATION requested for another compound
Asked: Please report the measured MEAN CORPUSCULAR HEMOGLOBIN CONCENTRATION for C#C[C@]1(O)CC[C@H]2[C@@H]3CCC4=CC(=O)CC[C@]4(C)[C@H]3CC[C@@]21C
Given back: 31 G/DL
